experiment: Cytotoxicity against human BEAS-2B cells assessed as inhibition of cell growth measured after 24 hrs by CCK-8 assay; format: toxicity, cell-based
CC50 at 24 h: recorded values

{"substance": "H-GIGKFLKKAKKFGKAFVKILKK-OH", "unit.annotation": "µg/mL", "CC50 at 24 h": 45.9}
{"substance": "H-GLRKWLRKFKKFW-OH", "unit.annotation": "µg/mL", "CC50 at 24 h": 38.4}

###

Reported hemolysis at 1 h, 128 µg/mL values follow for various compounds
assay: Hemolytic activity in human red blood cell assessed as hemolysis at 128 microg/ml measured after 1 hrs by microplate reader assay relative to control; format: toxicity, cell-based, Erythrocyte; conditions: red blood cells, at 128 µg/mL, read-out: Activity
Non-standard residues stand in square brackets, D forms with d. Residues, ends and D or L forms follow the SMILES beside them. Dab = NCC[C@H](N)C(=O)O
observable: hemolysis at 1 h, 128 µg/mL

{"compound": "CC(C)C[C@H](NC(=O)CN)C(=O)N[C@@H](CCCNC(=N)N)C(=O)N[C@@H](CCN)C(=O)N[C@@H](Cc1c[nH]c2ccccc12)C(=O)N[C@@H](CC(C)C)C(=O)N[C@@H](CCCNC(=N)N)C(=O)N[C@@H](CCN)C(=O)N[C@@H](Cc1ccccc1)C(=O)N[C@@H](CCN)C(=O)N[C@@H](CCN)C(=O)N[C@@H](Cc1ccccc1)C(=O)N[C@@H](Cc1c[nH]c2ccccc12)C(=O)O (H-GLR[Dab]WLR[Dab]F[Dab][Dab]FW-OH)", "reported.measurement": "< 10%"}
{"compound": "CC(C)C[C@H](NC(=O)CN)C(=O)N[C@@H](CCN)C(=O)N[C@@H](CCN)C(=O)N[C@@H](Cc1c[nH]c2ccccc12)C(=O)N[C@@H](CC(C)C)C(=O)N[C@@H](CCN)C(=O)N[C@@H](CCN)C(=O)N[C@@H](Cc1ccccc1)C(=O)N[C@@H](CCN)C(=O)N[C@@H](CCN)C(=O)N[C@@H](Cc1ccccc1)C(=O)N[C@@H](Cc1c[nH]c2ccccc12)C(=O)O (H-GL[Dab][Dab]WL[Dab][Dab]F[Dab][Dab]FW-OH)", "reported.measurement": "< 10%"}
